Measurement target: C5aR (Homo sapiens, UniProt P21730)
Construct: U937 cells are a monocytic cell line which express C5aR
Sequence (P21730 1-350): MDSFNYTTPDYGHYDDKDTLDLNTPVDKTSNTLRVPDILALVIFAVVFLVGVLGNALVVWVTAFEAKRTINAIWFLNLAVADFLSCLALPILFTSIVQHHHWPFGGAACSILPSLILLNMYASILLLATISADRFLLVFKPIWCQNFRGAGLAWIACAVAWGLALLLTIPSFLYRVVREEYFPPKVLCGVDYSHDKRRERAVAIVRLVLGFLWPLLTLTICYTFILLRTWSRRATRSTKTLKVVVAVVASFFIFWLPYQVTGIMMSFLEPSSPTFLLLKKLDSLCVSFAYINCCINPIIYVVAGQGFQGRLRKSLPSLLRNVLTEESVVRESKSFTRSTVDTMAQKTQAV
Experiment summary: chemotaxis assay (C5aR mediated migration)
Condition context: migration of U937 or neutrophil cells toward C5a (0.03 nM), 1.5 hours at 37° C., read-out: Mig IC50
pIC50: −log10 of the molar value.
Attribute measured: pIC50

Before answering, review these 8 worked examples.
{"columns": ["Compound", "pIC50"],
 "data": [
  ["CCc1cccc(CC)c1-n1nc2c(c1-c1cc(Cl)c(OC)c3[nH]ccc13)CN(c1ncc(C(F)(F)F)cn1)CC2 [Example 1.044]", "> 8.30"],
  ["COc1cccc(C)c1-n1nc2c(c1-c1ccc3[nH]ccc3c1)CN(C(=O)OC(C)(C)C)CC2 [Example 1.134]", "6.30 to 7.30"],
  ["CCc1cccc(CC)c1-n1nc2c(c1-c1ccc(CO)c3[nH]ccc13)CN(c1ncc(C(F)(F)F)cc1F)CC2 [Example 1.174]", "> 8.30"],
  ["CCc1cccc(CC)c1-n1nc2c(c1-c1cc(F)c(F)c3[nH]ccc13)CN(c1ccc(C(F)(F)F)cn1)CC2 [Example 1.116]", "7.30 to 8.30"],
  ["CCc1cccc(CC)c1-n1nc2c(c1-c1c(F)cc(Cl)c3[nH]ccc13)CN(c1ncc(C(C)C)cn1)CC2 [Example 1.132]", "> 8.30"],
  ["Cc1nc2cc(-c3c4c(nn3-c3c(C)cccc3OCC(C)C)CCN(c3ncc(C(F)(F)F)cc3F)C4)ccc2[nH]1 [Example 1.224]", "< 6.30"],
  ["CCc1cccc(CC)c1-n1nc2c(c1-c1ccc(Cl)c3[nH]cc(C)c13)CN(c1ncc(C(F)(F)F)cc1F)CC2 [Example 1.146]", "> 8.30"],
  ["CCc1cccc(CC)c1-n1nc2c(c1-c1c(F)cc(Cl)c3[nH]ccc13)CN(c1ncc(C3CC3)cc1F)CC2 [Example 1.062]", "> 8.30"]
]}

// pIC50 lookup, compound = Cc1cccc(C)c1-n1nc2c(c1-c1ccc(Cl)c3[nH]ccc13)CN(c1ncc(C(C)C)cc1F)CC2 [Example 1.153] , result: 7.30 to 8.30

====

Catalogue of IC50 readings, one per entry.
Measurement target: C5aR (Homo sapiens, UniProt P21730)
Construct: U937 cells are a monocytic cell line which express C5aR; host or cells: U937 cells (cAMP treated) or isolated neutrophils
Experiment summary: chemotaxis assay (C5aR mediated migration)
Format: cell-based
Condition context: migration of U937 or neutrophil cells toward C5a (0.03 nM), 1.5 hours at 37° C., read-out: Mig IC50

Before answering, review these 6 worked examples.
{"columns": ["Smiles repr", "Result"],
 "data": [
  ["COc1c(F)cc(-c2c3c(nn2-c2c(C)cccc2C)CCN(c2ncc(C4CC4)cn2)C3)c2cc[nH]c12", "< 5 nM"],
  ["CCc1cccc(CC)c1-n1nc2c(c1-c1cc(Cl)c(C)c3[nH]ccc13)CN(c1ncc(C(F)(F)F)cn1)CC2", "< 5 nM"],
  ["COc1cccc(C)c1-n1nc2c(c1-c1ccc3[nH]ccc3c1)CN(c1cc(C(C)(C)C)ccc1C)CC2", "5 to 50 nM"],
  ["CCc1cccc(CC)c1-n1nc2c(c1-c1cc(F)c(OC)c3[nH]c(CO)nc13)CN(c1ncc(C(F)(F)F)cn1)CC2", "> 500 nM"],
  ["CCc1cccc(CC)c1-n1nc2c(c1-c1c(F)cc(CO)c3[nH]ccc13)CN(c1ncc(C3CC3)cn1)CC2", "< 5 nM"],
  ["Cc1cccc(OCC(C)C)c1-n1nc2c(c1-c1ccc3[nH]ccc3c1)CN(c1ncc(Cl)cc1Cl)CC2", "< 5 nM"]
]}

# ---- query compound ----
// IC50 lookup, compound = CCc1cccc(CC)c1-n1nc2c(c1-c1c(F)cc(Cl)c3[nH]ccc13)CN(c1ncc(C3CC3)cn1)CC2 , result: < 5 nM

====

Measurement target: C5aR (Homo sapiens)
Construct: U937 cells are a monocytic cell line which express C5aR
Experiment summary: chemotaxis assay (C5aR mediated migration)
Condition context: migration of U937 or neutrophil cells toward C5a (0.03 nM), 1.5 hours at 37° C., read-out: Mig IC50
Catalogue of IC50 readings, one per entry.

Before answering, review these 3 worked examples.
{"columns": ["Smiles repr", "Attribute measured", "Result"],
 "data": [
  ["Cc1cccc(OCC(C)C)c1-n1nc2c(c1-c1ccc3[nH]nc(N)c3c1)CN(c1ncc(C(F)(F)F)cc1F)CC2", "IC50", "> 500 nM"],
  ["Cc1cccc(C)c1-n1nc2c(c1-c1ccc(Cl)c3[nH]ncc13)CN(c1ncc(C(F)(F)F)cn1)CC2", "IC50", "5 to 50 nM"],
  ["Cc1cccc(C)c1-n1nc2c(c1-c1ccc3[nH]ccc3c1F)CN(c1ncc(Cl)cc1Cl)CC2", "IC50", "5 to 50 nM"]
]}

# ---- query compound ----
// IC50 lookup, compound = CCc1cccc(CC)c1-n1nc2c(c1-c1ccc(Cl)c3[nH]ccc13)CN(c1ncccn1)CC2 , result: < 5 nM

====

Measurement target: C5aR (Homo sapiens)
Construct: U937 cells are a monocytic cell line which express C5aR
Experiment summary: chemotaxis assay (C5aR mediated migration)
Condition context: migration of U937 or neutrophil cells toward C5a (0.03 nM), 1.5 hours at 37° C., read-out: Mig IC50
pIC50: −log10 of the molar value.
Attribute measured: pIC50

Before answering, review these 5 worked examples.
{"columns": ["Smiles repr", "Measurement target", "pIC50"],
 "data": [
  ["CCc1cccc(CC)c1-n1nc2c(c1-c1ncc(Cl)c3[nH]ccc13)CN(c1ncc(C(F)(F)F)cn1)CC2", "C5aR (Homo sapiens)", "> 8.30"],
  ["Cc1cccc(OCC(C)C)c1-n1nc2c(c1-c1ccc3[nH]ccc3c1)CN(Cc1ccc(C(F)(F)F)cc1C(F)(F)F)CC2", "C5aR (Homo sapiens)", "7.30 to 8.30"],
  ["CCc1cccc(CC)c1-n1nc2c(c1-c1ccc(C)c3[nH]ccc13)CN(c1ncc(C(F)(F)F)cc1F)CC2", "C5aR (Homo sapiens)", "> 8.30"],
  ["CCc1cccc(CC)c1-n1nc2c(c1-c1ccc(F)c3[nH]ccc13)CN(c1ncc(Cl)cc1Cl)CC2", "C5aR (Homo sapiens)", "> 8.30"],
  ["Cc1cccc(C)c1-n1nc2c(c1-c1ccc3[nH]ccc3c1)CN(c1ncc(Cl)cc1Cl)CC2", "C5aR (Homo sapiens)", "7.30 to 8.30"]
]}

// pIC50 lookup, compound = Cc1cccc(C)c1-n1nc2c(c1-c1cc(Cl)c3[nH]ccc3c1)CN(c1ncc(Cl)cc1Cl)CC2 , result: 6.30 to 7.30

// pIC50 lookup, compound = CCc1cccc(CC)c1-n1nc2c(c1-c1ccc(F)c3[nH]ccc13)CN(c1cnccn1)CC2 , result: 7.30 to 8.30

====

Measurement target: C5aR (Homo sapiens)
Construct: U937 cells are a monocytic cell line which express C5aR
Experiment summary: chemotaxis assay (C5aR mediated migration)
Condition context: migration of U937 or neutrophil cells toward C5a (0.03 nM), 1.5 hours at 37° C., read-out: Mig IC50
Attribute measured: IC50

{"columns": ["Smiles repr", "Measurement target", "Result"],
 "data": [
  ["CCc1cccc(CC)c1-n1nc2c(c1-c1cc(F)c(OC)c3[nH]ccc13)CN(c1ncc(OC(C)C)cn1)CC2", "C5aR (Homo sapiens)", "< 5 nM"],
  ["CCc1cccc(CC)c1-n1nc2c(c1-c1ccc(C)c3[nH]cc(Cl)c13)CN(c1ncc(C(F)(F)F)cc1F)CC2", "C5aR (Homo sapiens)", "< 5 nM"],
  ["Cc1cccc(OCC(C)C)c1-n1nc2c(c1-c1ccc3[nH]nc(C)c3c1)CN(c1ncc(C(F)(F)F)cc1F)CC2", "C5aR (Homo sapiens)", "> 500 nM"],
  ["CCc1cccc(CC)c1-n1nc2c(c1-c1cc(F)c(Cl)c3[nH]ccc13)CN(c1ncc(C(F)(F)F)cc1F)CC2", "C5aR (Homo sapiens)", "< 5 nM"],
  ["Cc1cccc(OCC(C)C)c1-n1nc2c(c1-c1ccc3[nH]ccc3c1)CN(C(C)(C)c1ccccc1)CC2", "C5aR (Homo sapiens)", "< 5 nM"],
  ["CCc1cccc(CC)c1-n1nc2c(c1-c1ccc3[nH]ccc3c1)CN(Cc1c(Cl)cccc1C(F)(F)F)CC2", "C5aR (Homo sapiens)", "< 5 nM"],
  ["CCc1cccc(CC)c1-n1nc2c(c1-c1ncc(OC)c3[nH]ccc13)CN(c1ncc(C(F)(F)F)cn1)CC2", "C5aR (Homo sapiens)", "5 to 50 nM"],
  ["CCc1cccc(CC)c1-n1nc2c(c1-c1ccc(Cl)c3[nH]ccc13)CN(c1ncc(C(N)=O)cn1)CC2", "C5aR (Homo sapiens)", "50 to 500 nM"],
  ["Cc1cccc(C)c1-n1nc2c(c1-c1cc(F)c(C)c3[nH]ccc13)CN(c1ncc(C(F)(F)F)cc1F)CC2", "C5aR (Homo sapiens)", "5 to 50 nM"],
  ["CCc1cccc(CC)c1-n1nc2c(c1-c1ccc(F)c3[nH]cc(Cl)c13)CN(c1ncc(C(F)(F)F)cc1F)CC2", "C5aR (Homo sapiens)", "5 to 50 nM"]
]}

Kindly note: C5aR (Homo sapiens), CCc1cccc(CC)c1-n1nc2c(c1-c1ccc(Cl)c3[nH]ccc13)CN(c1ncc(C3CC3)cc1Cl)CC2 , IC50 value reported: < 5 nM

Kindly note: C5aR (Homo sapiens), CCc1cccc(CC)c1-n1nc2c(c1-c1c(F)cc(CO)c3[nH]ccc13)CN(c1ncc(C(F)(F)F)cc1F)CC2 , IC50 value reported: < 5 nM

Kindly note: C5aR (Homo sapiens), CCc1cccc(CC)c1-n1nc2c(c1-c1ccc(Cl)c3[nH]ccc13)CN(c1cnc(C(F)(F)F)cn1)CC2 , IC50 value reported: < 5 nM

Kindly note: C5aR (Homo sapiens), Cc1cccc(C)c1-n1nc2c(c1-c1c(F)cc(Cl)c3[nH]ccc13)CN(c1ncc(C(F)(F)F)cc1F)CC2 , IC50 value reported: 5 to 50 nM
